target: S. pyogenes SKKanGAS, kanamycin survival, BacTiterGlo, 6 h; assay: S. pyogenes SKKanGAS kanamycin growth inhibitors – SKKanGAS strain, luminescence, dose confirmation, streptokinase promoter inhibitor project, dose response (AID 1902);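 further: lower survival reflects blocked streptokinase promoter driving kanamycin resistance gene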
For each entry below, report its EC50 value.

>>> observed_measurement("CC(C)c1c(C(=O)N/N=C/c2cccc(OCc3ccccc3)c2)nnn1-c1nonc1N")
"9.4 µM"
>>> observed_measurement("CCCOC(=O)c1ccc(Oc2cn[nH]c2-c2ccc(O)cc2O)cc1")
"3.34 µM"
>>> observed_measurement("COc1cc2c3c(c1)/C(=C1/SC(=S)NC1=O)C(=O)N3C(C)(C)C=C2C")
"1.1 µM"

// each listed compound needs a value for EC50
1. Cc1cccc(C)c1OCC(O)CN1CCC(CN2C(=O)c3cccc4cccc(c34)C2=O)CC1 (stereo not given)
2. Cc1cccc(C)c1OCC(=O)Nc1ccccc1N1CCCCC1

## Result
1. 7.35 µM
2. 2.78 µM

###

molecular target: S. pyogenes SKKanGAS, kanamycin survival, BacTiterGlo, 6 h; test: S. pyogenes SKKanGAS kanamycin growth inhibitors – SKKanGAS strain, luminescence, dose confirmation, streptokinase promoter inhibitor project, dose response (AID 1902)
Calls of active or inactive are those of the source.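 Rule for the calls: active = EC50 no more than a set limit of log units above the highest dose; inactive = the rest.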
Outcome field: choose from T for active, F for inactive

# count of solved cases: 3
>>> cat("CCOc1ccc(Nc2nc(N3CCCCC3)nc(N3CCCCC3)n2)cc1")
"T"
>>> cat("Cc1cc(C(=O)N/N=C/c2cc(N=Nc3ccccc3)ccc2O)n[nH]1")
"T"
>>> cat("COc1ccc2c(c1)[nH]c1c(=O)n(CCc3cnc[nH]3)cnc12")
"F"

## Task Please indicate how the test categorized COc1cccc(-c2cc(C(=O)NCC3CCCO3)c3cc(Br)cc(C)c3n2)c1 (stereo not drawn) .
## Result F

## Task One more compound: CC(C)c1nc(NCc2ccccc2)c(C#N)c2c1CCCC2
## Result T

## Task Same read-out for CCSc1nnc(NC(=O)c2ccccn2)s1 ?
## Result T

## Task // same read-out, input: O=C1N/C(=N\N=C\c2cccs2)SC1Cc1ccc(Cl)c(Cl)c1 (stereo not drawn)
## Result T

## Task Next compound up: CCCCCCCCCc1nc2sc3c(c2c(=O)n1NC(=O)c1ccccc1[N+](=O)[O-])CC(C)(C)OC3
## Result T

## Task Try Cc1nn(-c2ccccc2)c(Cl)c1C1C(C#N)=C(N)Oc2c1c(=O)oc1ccccc21 (stereo not drawn) next.
## Result T

## Task Repeat for the following compound: CC(=O)Oc1c(I)cc(I)cc1C(=O)Nc1ccc(Cl)cc1
## Result T

###

biological target: S. pyogenes SKKanGAS, kanamycin survival, BacTiterGlo, 6 h; assay: S. pyogenes SKKanGAS kanamycin growth inhibitors – SKKanGAS strain, luminescence, dose confirmation, streptokinase promoter inhibitor project, dose response (AID 1902)
The source made the active and inactive calls.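 How the source made its calls: active means EC50 no more than a set limit of log units above the highest dose; inactive means the rest.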
Response enum: 1 = active, -1 = inactive

>>> cat("COc1cccc(NCc2cc(=O)oc3cc(C)c(O)cc23)c1")
1
>>> cat("O=Cc1cc(N=Nc2ccccc2Cl)ccc1O")
1
>>> cat("CCOC(=O)N1CCN(C(=O)c2ccc3c(=O)n(CCC4=CCCCC4)c(=S)[nH]c3c2)CC1")
1
>>> cat("CCOc1cccc(N(C(=O)c2ccco2)C(C(=O)NC2CCCC2)c2cccnc2)c1 (stereo not drawn)")
-1
>>> cat("O=C(Nc1cccc(F)c1)N1CCCCCC1")
-1
>>> cat("COC(=O)c1c(NC(=O)c2ccccc2)sc(C(=O)c2ccccc2)c1C")
1

## Task Test call for this compound, please: O=[N+]([O-])c1ccc(N=Nc2ccc(O)cc2O)cc1
## Result 1

## Task # repeat for CCOC(=O)N1CCN(C(=O)c2ccc3c(c2)NC(=O)/C(=C\c2ccc(OC)c(OC)c2)S3)CC1
## Result 1

## Task Same again, this time with CCC1CCCCN1S(=O)(=O)c1ccc(C(=O)Nc2nnc(C3CC3)o2)cc1 (stereo not drawn)
## Result 1

## Task # iterate: CCOc1cc(/C=N/Nc2cc(C)nc(-n3nc(C)cc3C)n2)ccc1O
## Result 1

## Task Also Cc1ccc(NC(=S)NNC(=S)Nc2cccc(C(F)(F)F)c2)cc1 , if possible.
## Result 1

###

Would you mind telling me the reported EC50 of each entry?
target: S. pyogenes SKKanGAS, kanamycin survival, BacTiterGlo, 6 h; experiment: S. pyogenes SKKanGAS kanamycin growth inhibitors – SKKanGAS strain, luminescence, dose confirmation, streptokinase promoter inhibitor project, dose response (AID 1902)

>>> observed_measurement("N#Cc1ccc(-c2ccccc2)nc1SCC(=O)c1cc2ccccc2oc1=O")
"596 nM"
>>> observed_measurement("CCn1cc(C(=O)NCc2ccc3c(c2)OCO3)c(=O)c2cc(F)c(N3CCN(C(=O)c4ccco4)CC3)cc21")
"9900 nM"
>>> observed_measurement("COc1cccc(-c2nn(-c3ccccc3)cc2C(=O)Nc2nccs2)c1")
"2980 nM"
>>> observed_measurement("CC(=O)NS(=O)(=O)c1ccc(N=c2ssc3c2-c2ccc(C)cc2NC3(C)C)cc1")
"2920 nM"

Let's switch to this molecule now.
## Task Report EC50 for Cc1onc(-c2ccccc2)c1C(=O)NC(=S)NNC(=O)c1ccc(O)cc1O please.
## Result 2670 nM

###

target: S. pyogenes SKKanGAS, kanamycin survival, BacTiterGlo, 6 h; experiment: S. pyogenes SKKanGAS kanamycin growth inhibitors – SKKanGAS strain, luminescence, dose confirmation, streptokinase promoter inhibitor project, dose response (AID 1902);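 further: lower survival reflects blocked streptokinase promoter driving kanamycin resistance gene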
The source made the active and inactive calls.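 The calls were made as follows: active = EC50 no more than a set limit of log units above the highest dose; inactive = the rest.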
Please provide measured EC50 for the entries that follow.

>>> observed_measurement("COc1ccc(/C=N/NC(=O)Cc2csc(Nc3cccc(C(F)(F)F)c3)n2)cc1C")
"3.95 µM"
>>> observed_measurement("CC(=O)O[C@H]1C[C@@]2(C)[C@@H](C[C@@H](O)[C@H]3[C@@]4(C)CC[C@@H](O)[C@@H](C)[C@@H]4CC[C@@]32C)/C1=C(\\CCC=C(C)C)C(=O)O")
"0.177 µM"
>>> observed_measurement("Cc1[nH]nc(Nc2ccc(C(C)C)cc2)c1[N+](=O)[O-]")
"13.8 µM"

Now look at this entry.
## Task // lookup EC50 for O=C(c1nc2ccc(Cl)cn2c1CN1CCC(CO)CC1)N1CCc2ccccc2C1
## Result > 15 µM (inactive)

###

Assignment: determine reported EC50 for the given compounds.
molecular target: S. pyogenes SKKanGAS, kanamycin survival, BacTiterGlo, 6 h; experiment: S. pyogenes SKKanGAS kanamycin growth inhibitors – SKKanGAS strain, luminescence, dose confirmation, streptokinase promoter inhibitor project, dose response (AID 1902);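 further: lower survival reflects blocked streptokinase promoter driving kanamycin resistance gene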

# annotated cases, reported EC50 shown
>>> observed_measurement("COC(=O)c1cc(-c2ccc(Br)cc2)c2c(=O)[nH]c(=O)n(C)c2n1")
"1.22 µM"
>>> observed_measurement("CCCOc1ccc(C(=O)NNC(=S)NC(=O)CC)cc1")
"0.431 µM"
>>> observed_measurement("N=C1SC(c2ccccc2)C(=O)N1c1ncc(Cc2ccccc2Cl)s1 (stereo unspecified)")
"0.177 µM"

Each compound below has a recorded value; state its EC50.
1. CCOc1ccccc1NC(=O)c1nc(S(=O)(=O)Cc2ccccc2)ncc1Cl
2. Cc1ccn2c(Nc3ccccc3C)c(-c3ccccn3)nc2c1
3. S=C(NCc1ccco1)N1CCN(c2nc(-c3ccc(Cl)cc3)cs2)CC1
4. CCC(=O)NC(c1ccc(OC)c(OC)c1)c1cc(Cl)c2cccnc2c1O (stereo unspecified)
5. Cc1ncc(CO)c(/C=N/NC(=S)Nc2ccc(Cl)c(Cl)c2)c1O
6. S=C1NC(C23CC4CC(CC(C4)C2)C3)=CC(c2ccc3c(c2)OCO3)N1 (stereo unspecified)
7. COc1cccc(-c2coc3c(C)c4oc(=O)c(CCC(=O)O)c(C)c4cc23)c1
8. Oc1nc(Nc2ccc(Cl)cc2Cl)sc1/C=C1\C=Nc2ccccc21

## Result
1. 8.85 µM
2. 2.19 µM
3. 9.92 µM
4. 5 µM
5. 5.9 µM
6. 6.76 µM
7. 3.73 µM
8. 1.76 µM

###

molecular target: S. pyogenes SKKanGAS, kanamycin survival, BacTiterGlo, 6 h; assay: S. pyogenes SKKanGAS kanamycin growth inhibitors – SKKanGAS strain, luminescence, dose confirmation, streptokinase promoter inhibitor project, dose response (AID 1902);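 further: lower survival reflects blocked streptokinase promoter driving kanamycin resistance gene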
Calls of active or inactive are those of the source.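 The calls were made as follows: active = EC50 no more than a set limit of log units above the highest dose; inactive = the rest.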
Please provide measured EC50 for the entries that follow.

>>> observed_measurement("COc1ccccc1N1CC(C(=O)Nc2nnc(SCC(=O)NCC3CCCO3)s2)CC1=O (stereo not given)")
"> 15 µM (inactive)"
>>> observed_measurement("Cc1cccc(NC(=O)c2ccc(S(=O)(=O)N(C)CC3CCCO3)cc2)c1C (stereo not given)")
"> 15 µM (inactive)"
>>> observed_measurement("NC(=S)N/N=C\\c1c(OCc2ccccc2Cl)ccc2ccccc12")
"2.53 µM"
>>> observed_measurement("O=C(Nc1nc2ccc(SC(F)F)cc2s1)c1ccc(NS(=O)(=O)c2ccc(F)c(F)c2)cc1")
"1.89 µM"

// next entry
## Task Entry O=C1c2cccc3cccc(c23)C(=O)N1CC1CCN(CC(O)COc2ccc3ccccc3c2)CC1 (stereo not given) , system S. pyogenes SKKanGAS, kanamycin survival, BacTiterGlo, 6 h: what EC50 was measured?
## Result 6.84 µM
